Values were extracted from ChEMBL document CHEMBL3616449.

Assay: Cytotoxicity against african green monkey Vero cells after 72 hrs by MTT assay
Type: cell-based
Details: chlorocebus sabaeus
Quantity measured: CC50 at 72 h (µM)

                                    molecule  quantity_measured  sign_qualifier  recorded_measurement
 0  CCOc1cccc2c1OC(NC)=C([N+](=O)[O-])C2c1ccc(N2CCN(c3ccnc4cc(Cl)ccc34)CC2)cc1 (stereo not drawn)       CC50 at 72 h               =                  40.4
 1  CNC1=C([N+](=O)[O-])C(c2ccc(N3CCN(c4ccnc5cc(Cl)ccc45)CC3)cc2)c2c(C=O)c(C)cc(Cl)c2O1 (stereo not drawn)       CC50 at 72 h               =                    84
 2  CNC1=C([N+](=O)[O-])C(c2ccc(N3CCN(c4ccnc5cc(Cl)ccc45)CC3)cc2)c2ccccc2O1 (stereo not drawn)       CC50 at 72 h               >                   200
 3  CNC1=C([N+](=O)[O-])C(c2ccc(N3CCN(c4ccnc5cc(Cl)ccc45)CC3)cc2)c2cc([N+](=O)[O-])ccc2O1 (stereo not drawn)       CC50 at 72 h               =                  31.9
 4  CNC1=C([N+](=O)[O-])C(c2ccc(N3CCCN(c4ccnc5cc(Cl)ccc45)CC3)cc2)c2ccccc2O1 (stereo not drawn)       CC50 at 72 h               =                  91.4
 5  CNC1=C([N+](=O)[O-])C(c2ccc(N3CCN(c4ccnc5cc(Cl)ccc45)CC3)cc2)c2cc(Cl)ccc2O1 (stereo not drawn)       CC50 at 72 h               =                  74.5
 6  CNC1=C([N+](=O)[O-])C(c2ccc(N3CCN(c4ccnc5cc(Cl)ccc45)CC3)cc2)c2cc(Br)ccc2O1 (stereo not drawn)       CC50 at 72 h               =                  88.6
 7  CNC1=C([N+](=O)[O-])C(c2ccc(N3CCN(c4ccnc5cc(Cl)ccc45)CC3)cc2)c2cc(OC)ccc2O1 (stereo not drawn)       CC50 at 72 h               =                  81.9
 8  O=[N+]([O-])C1=C(NCc2ccccc2)Oc2ccccc2C1c1ccc(N2CCN(c3ccnc4cc(Cl)ccc34)CC2)cc1 (stereo not drawn)       CC50 at 72 h               =                  66.5
 9      Clc1ccc2c(N3CCN(c4ccccc4)CC3)ccnc2c1       CC50 at 72 h               =                   179
10  CNC1=C([N+](=O)[O-])C(c2ccc(N3CCCN(c4ccnc5cc(Cl)ccc45)CC3)cc2)c2cc(Br)ccc2O1 (stereo not drawn)       CC50 at 72 h               >                   200
11  CNC1=C([N+](=O)[O-])C(c2ccc(N3CCN(c4ccnc5cc(Cl)ccc45)CC3)cc2)c2cccc(OC)c2O1 (stereo not drawn)       CC50 at 72 h               =                  21.8
12  CNC1=C([N+](=O)[O-])C(c2ccc(N3CCN(c4ccnc5cc(Cl)ccc45)CC3)cc2)c2cc(Br)cc(Br)c2O1 (stereo not drawn)       CC50 at 72 h               >                   200
13  O=[N+]([O-])C1=C(NCCc2ccccc2)Oc2ccccc2C1c1ccc(N2CCN(c3ccnc4cc(Cl)ccc34)CC2)cc1 (stereo not drawn)       CC50 at 72 h               =                   131
14  CNC1=C([N+](=O)[O-])C(c2ccc(N3CCN(c4ccnc5cc(Cl)ccc45)CC3)cc2)c2cc(Cl)cc(Cl)c2O1 (stereo not drawn)       CC50 at 72 h               =                  97.8
15     Clc1ccc2c(N3CCCN(c4ccccc4)CC3)ccnc2c1       CC50 at 72 h               =                   148
16  CNC1=C([N+](=O)[O-])C(c2ccc(N3CCCN(c4ccnc5cc(Cl)ccc45)CC3)cc2)c2cc(Cl)ccc2O1 (stereo not drawn)       CC50 at 72 h               =                    77
17  CCCCNC1=C([N+](=O)[O-])C(c2ccc(N3CCN(c4ccnc5cc(Cl)ccc45)CC3)cc2)c2ccccc2O1 (stereo not drawn)       CC50 at 72 h               =                   107
